# Experimental details: chemical genetic growth profiling, strain panel (AID 1159580);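 note: tested at 20 µM; growth read once vehicle control cultures reached saturation at 30 °C; 1 = growth at the plate median or of vehicle wells; lower values mean less growth of the strain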
# Cond: S. cerevisiae deletion strains, growth OD, locus YOR106W, strain vam3, active compounds read low
Screen size: about 5,500 compounds; about 2,000 (36%) were called active. Roughly 18% stayed inconclusive and do not appear here. This is one part of the list.
Readout kind: normalized growth

In [3]: df
Out[3]:
                                    molecule  experimental_value
 0  CC1=CCCC2C1(C)CCC(C)C2(C)CC/C(C)=C/C[n+]1cn(C)c2c(N)ncnc21 (centres undefined)               0.883
 1                            O=C(O)c1cccnc1                1.05
 2                           O=C(O)C1=CCCNC1                1.01
 3                          O=C(NCO)c1cccnc1                1.02
 4            CCCSc1ccc2nc(NC(=O)OC)[nH]c2c1               0.997
 5  CC(C)=CCc1c2c(c3occ(-c4ccc(O)cc4)c(=O)c3c1O)C=CC(C)(C)O2               0.634
 6                            NC(=O)c1cccnc1               0.986
 7  Cc1scc2c1N(C(=O)CN1CCN(C)CC1)c1ccccc1NC2=O               0.948
 8  CC(CCc1ccccc1)NCC(O)c1ccc(O)c(C(N)=O)c1 (centres undefined)                1.02
 9                   Cc1cc(=O)[nH]c(=S)[nH]1               0.999
10            CCCOc1ccc2nc(NC(=O)OC)[nH]c2c1               0.999
11  CCN1CCN(C(=O)NC(C(=O)N[C@@H]2C(=O)N3[C@@H]2SC(C)(C)[C@@H]3C(=O)O)c2ccccc2)C(=O)C1=O (some centres undefined)               0.984
12  CN1CCN(C(=O)OC2c3nccnc3C(=O)N2c2ccc(Cl)cn2)CC1 (centres undefined)                0.98
13  CC(C)(C)NCC(O)c1ccc(O)c(CO)c1 (centres undefined)                1.01
14        CCCN(CCC)S(=O)(=O)c1ccc(C(=O)O)cc1               0.971
15  CC(N=C(NC#N)Nc1ccncc1)C(C)(C)C (centres undefined)               0.964
16           Cc1nc(N)cc(C[n+]2csc(CCO)c2C)n1               0.972
17                            O=C(O)c1ccccc1               0.923
18  CC(C)c1ccc2c(c1)CCC1[C@](C)(CN)CCC[C@]21C (some centres undefined)                0.92
